This collection of values is drawn from patent US20250129070A1.

Test system: VCaP cells
Procedure Details: VCaP growth inhibition assay
Format: cell-based
Conditions Used: 30 pM R1881, 9 days, CTG
pIC50: −log10 of the molar value.
Readout Label: pIC50

Compound	Readout Label	Data Value
CC(=O)N1CCc2c(c(N3CCCc4cc(-c5cnn(C)c5)c(C(F)F)cc43)nn2C2CCN(C3CCN(c4ncc(C(=O)NC5C(C)(C)C(Oc6ccc(C#N)c(Cl)c6)C5(C)C)cn4)CC3)CC2)C1 (stereo not drawn) [Compound 85]	pIC50	9.00 to 10.00
COc1cc(OCC(C)(C)[C@H](NC(=O)c2ccc(N3CCN(CC4CCC(n5nc(N6CCCc7cc(-c8cnn(C)c8)c(C(F)F)cc76)c6c5CCN(C(C)=O)C6)CC4)CC3)cc2)C(C)C)ccc1C#N (stereo partly drawn) [Compound 317]	pIC50	≥ 10.00
CC(=O)N1CCc2c(c(Nc3ccc(-c4cnn(C)c4)cc3F)nn2C2CN(C3CCN(c4ncc(C(=O)NC5C(C)(C)C(Oc6ccc(C#N)c(Cl)c6)C5(C)C)cn4)CC3)C2)C1 (stereo not drawn) [Compound 5]	pIC50	< 7.00
